# tgt: Casein kinase I isoform epsilon (Homo sapiens)
# Sequence (P49674 whole entry, canonical isoform): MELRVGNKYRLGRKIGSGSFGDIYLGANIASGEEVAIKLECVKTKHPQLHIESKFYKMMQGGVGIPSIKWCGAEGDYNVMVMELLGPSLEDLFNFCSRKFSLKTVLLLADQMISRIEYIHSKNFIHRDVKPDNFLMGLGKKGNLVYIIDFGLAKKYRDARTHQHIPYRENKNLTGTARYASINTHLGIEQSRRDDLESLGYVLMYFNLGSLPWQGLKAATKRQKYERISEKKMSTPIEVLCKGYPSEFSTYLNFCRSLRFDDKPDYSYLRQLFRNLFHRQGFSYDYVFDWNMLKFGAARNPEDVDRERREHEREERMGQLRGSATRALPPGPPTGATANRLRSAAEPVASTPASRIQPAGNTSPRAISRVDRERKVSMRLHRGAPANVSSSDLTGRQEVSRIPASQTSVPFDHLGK
# assay protocol: Inhibition of CK1 epsilon (unknown origin)
observable: IC50 (nM)
Respond with the bare value in nM.

Query: // query IC50 value for entry CC1(C)Cn2nc(-c3ccc(F)cn3)c(-c3ccnc4[nH]ncc34)c2CO1
Result: 93

Query: Also [2H]C([2H])([2H])C1(C([2H])([2H])[2H])Cn2nc(-c3ccc(F)cn3)c(-c3ccnc4[nH]ncc34)c2CO1 , if possible.
Result: 110

====

# tgt: Cytochrome P450 3A4 (Homo sapiens, UniProt P08684)
# Sequence (P08684 whole entry): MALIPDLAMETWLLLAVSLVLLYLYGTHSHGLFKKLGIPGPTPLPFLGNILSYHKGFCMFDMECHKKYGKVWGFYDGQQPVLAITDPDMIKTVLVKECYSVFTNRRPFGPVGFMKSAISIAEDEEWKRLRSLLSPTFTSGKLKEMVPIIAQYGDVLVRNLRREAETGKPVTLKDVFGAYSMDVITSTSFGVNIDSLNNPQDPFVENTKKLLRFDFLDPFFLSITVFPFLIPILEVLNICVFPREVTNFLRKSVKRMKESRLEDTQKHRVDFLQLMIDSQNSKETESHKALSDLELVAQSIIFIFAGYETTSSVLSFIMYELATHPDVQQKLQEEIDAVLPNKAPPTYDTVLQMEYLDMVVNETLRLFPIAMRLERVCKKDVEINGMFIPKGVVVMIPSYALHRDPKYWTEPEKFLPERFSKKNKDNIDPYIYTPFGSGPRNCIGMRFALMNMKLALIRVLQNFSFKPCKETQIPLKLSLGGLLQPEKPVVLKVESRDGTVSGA
pIC50: −log10 of the molar value.
Entries and their pIC50

[
  {
    "record smiles": "CC1(C)Cn2nc(-c3ccc(F)cn3)c(-c3ccnc4[nH]ncc34)c2CO1",
    "value": "< 4.70"
  }
]

Query: Lab note: need pIC50 with Cytochrome P450 3A4 (Homo sapiens, UniProt P08684) for entry [2H]C([2H])([2H])C1(C([2H])([2H])[2H])Cn2nc(-c3ccc(F)cn3)c(-c3ccnc4[nH]ncc34)c2CO1 , please look it up.
Result: < 4.70

====

# assay protocol: Cmax in brain of C57BL/6 mouse at 30 mg/kg, sc measured after 15 mins by LC/MS-MS analysis
# Format: ADME, organism-based
# Design: time 15 min, dose 30 mg/kg, route sc
observable: Cmax (µM)
Respond with the bare value in µM.

Query: // query Cmax value for entry [2H]C([2H])([2H])C1(C([2H])([2H])[2H])Cn2nc(-c3ccc(F)cn3)c(-c3ccnc4[nH]ncc34)c2CO1
Result: 3.7

====

# assay protocol: AUC (infinity) in Sprague-Dawley rat at 5 mg/kg, po measured for 24 hrs by LC-MS/MS analysis
# Format: ADME, organism-based
# Parameters: time 24 hrs, dose 5 mg/kg, route po
# condition description: in vivo
observable: AUC(0-inf) (ng·h/mL)
Respond with the bare value in ng·h/mL.

See these solved cases before continuing.
[
  {
    "record smiles": "CC1(C)Cn2nc(-c3ccc(F)cn3)c(-c3ccnc4[nH]ncc34)c2CO1",
    "AUC(0-inf) (ng·h/mL)": 150
  },
  {
    "record smiles": "Cn1cc(-c2ccnc3[nH]ncc23)c(-c2ccc(F)cc2)n1",
    "AUC(0-inf) (ng·h/mL)": 2580
  },
  {
    "record smiles": "Cn1cc(-c2ccnc3[nH]ccc23)c(-c2ccc(F)cn2)n1",
    "AUC(0-inf) (ng·h/mL)": 755
  }
]

Shifting focus to the compound that follows.
Query: // query AUC(0-inf) value for entry [2H]C([2H])([2H])C1(C([2H])([2H])[2H])Cn2nc(-c3ccc(F)cn3)c(-c3ccnc4[nH]ncc34)c2CO1
Result: 1940

====

# tgt: Dual specificity mitogen-activated protein kinase kinase 3 (Homo sapiens) (UniProt P46734)
# Sequence (P46734 whole entry): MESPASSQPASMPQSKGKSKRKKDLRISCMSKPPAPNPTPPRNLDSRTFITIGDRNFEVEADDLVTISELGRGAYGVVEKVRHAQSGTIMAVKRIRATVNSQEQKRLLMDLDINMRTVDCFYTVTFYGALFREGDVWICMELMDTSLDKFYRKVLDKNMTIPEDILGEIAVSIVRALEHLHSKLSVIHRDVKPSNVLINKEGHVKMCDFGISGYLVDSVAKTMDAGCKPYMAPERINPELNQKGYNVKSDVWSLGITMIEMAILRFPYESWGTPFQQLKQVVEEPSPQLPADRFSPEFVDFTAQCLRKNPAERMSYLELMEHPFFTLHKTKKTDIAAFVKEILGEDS
# assay protocol: Inhibition of MKK3 (unknown origin) at 1 uM by radiometric assay relative to control
# label = 1 (yes) if inhibition >= 30% else 0 (no)

[
  {
    "record smiles": "Cn1cc(-c2cc(N)nc3[nH]ccc23)c(-c2ccc(F)cn2)n1",
    "group label": "0 (no)"
  },
  {
    "record smiles": "Cn1cc(-c2c(C#N)cnc3[nH]ccc23)c(-c2ccc(F)cn2)n1",
    "group label": "0 (no)"
  },
  {
    "record smiles": "Cn1cc(-c2ccnc3[nH]ccc23)c(-c2ccc(F)cn2)n1",
    "group label": "1 (yes)"
  },
  {
    "record smiles": "CC1(C)Cn2nc(-c3ccc(F)cn3)c(-c3ccnc4[nH]ccc34)c2CO1",
    "group label": "1 (yes)"
  },
  {
    "record smiles": "Cc1cnc2[nH]ccc2c1-c1cn(C)nc1-c1ccc(F)cn1",
    "group label": "0 (no)"
  }
]

Query: Exam item: decide whether the reported inhibition for Fc1ccc(-c2nn3c(c2-c2ccnc4[nH]ccc24)COCC3)nc1 is at least 30%.
Result: 1 (yes)

Query: Also Cn1cc(-c2ccnc3[nH]c(C(F)(F)F)cc23)c(-c2ccc(F)cn2)n1 , if possible.
Result: 1 (yes)
